target: TrkA receptor (Homo sapiens (Human), UniProt P04629); assay: DiscoverX PathHunter TrkA functional assay (U2OS cells, NGF stimulated); settings: U2OS cells expressing TrkA-Prolink and Shc1-EA; compound 1 hour, then EC80 of NGF for 3 hours; luminescence
Sequence (P04629 33-796): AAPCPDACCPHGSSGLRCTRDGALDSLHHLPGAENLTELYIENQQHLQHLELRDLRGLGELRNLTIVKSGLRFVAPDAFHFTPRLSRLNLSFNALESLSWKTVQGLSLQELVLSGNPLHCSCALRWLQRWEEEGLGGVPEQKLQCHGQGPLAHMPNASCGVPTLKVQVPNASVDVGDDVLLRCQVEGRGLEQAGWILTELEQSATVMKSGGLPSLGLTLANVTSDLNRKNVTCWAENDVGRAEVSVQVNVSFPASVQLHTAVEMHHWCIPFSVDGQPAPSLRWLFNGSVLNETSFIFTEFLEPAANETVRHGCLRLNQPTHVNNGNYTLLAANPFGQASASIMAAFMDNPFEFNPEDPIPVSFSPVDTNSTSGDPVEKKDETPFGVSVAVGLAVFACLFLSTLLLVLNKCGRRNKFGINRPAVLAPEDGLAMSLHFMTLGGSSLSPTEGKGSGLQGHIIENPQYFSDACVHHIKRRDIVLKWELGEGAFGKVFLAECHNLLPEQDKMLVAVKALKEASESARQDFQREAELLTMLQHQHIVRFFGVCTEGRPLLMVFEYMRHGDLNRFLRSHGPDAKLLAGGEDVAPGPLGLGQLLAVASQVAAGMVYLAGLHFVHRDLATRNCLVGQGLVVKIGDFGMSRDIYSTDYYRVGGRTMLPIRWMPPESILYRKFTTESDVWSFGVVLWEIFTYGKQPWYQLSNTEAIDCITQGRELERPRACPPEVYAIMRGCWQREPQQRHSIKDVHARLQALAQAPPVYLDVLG
Record form. Attribute: log10 IC50. Fill in for each entry.
Values reflect log10 of reported IC50 (nM).

Reading of log10 IC50 for `Cc1ncc(NC(=O)Nc2ccccc2-c2ccccc2)c(-c2ccccc2)n1` with TrkA receptor (Homo sapiens (Human), UniProt P04629): 3.36

log10 IC50 on TrkA receptor (Homo sapiens (Human), UniProt P04629) for `O=C(Nc1c(-c2ccccc2)nc2ccccn12)Nc1c(-n2cccn2)nc2ccccn12` is 3.15

The reported TrkA receptor (Homo sapiens (Human), UniProt P04629) log10 IC50 of `Cc1ncc(NC(=O)N[C@@H](C)C2CCCCC2)c(-c2ccccc2)n1` is 3.32

I looked up `CSc1ncc(NC(=O)Nc2cnc(SC)nc2-c2ccccc2)c(-c2ccccc2)n1` and its log10 IC50 for TrkA receptor (Homo sapiens (Human), UniProt P04629) was 2.45

Summary: `Cc1ncc(NC(=O)Nc2c(-c3ccccc3)nc3ccccn23)c(-c2ccccc2)n1` , TrkA receptor (Homo sapiens (Human), UniProt P04629), log10 IC50 = 2.18

Noted log10 IC50 for `Cc1cc(NC(=O)Nc2cccc3ccccc23)n(-c2ccccc2)n1` , tested on TrkA receptor (Homo sapiens (Human), UniProt P04629): 2.77

Observed log10 IC50 on TrkA receptor (Homo sapiens (Human), UniProt P04629), entry `Cc1ncc(NC(=O)Nc2cccc3ccccc23)c(-c2ccccc2)n1` , equals 3.61

Record for `O=C(Nc1ccc(C(F)(F)F)cc1)Nc1c(-c2ccccc2)nc2ccccn12` under target or system TrkA receptor (Homo sapiens (Human), UniProt P04629): log10 IC50 reported as 3.63

Item: `Cc1cc(NC(=O)Nc2ccccn2)n(-c2ccccc2)n1` | System: TrkA receptor (Homo sapiens (Human), UniProt P04629) | log10 IC50: 3.26
